assayed target: human TYK2 (JH2domain-pseudokinase) (Homo sapiens (Human), UniProt P29597)
Sequence (P29597 556-888): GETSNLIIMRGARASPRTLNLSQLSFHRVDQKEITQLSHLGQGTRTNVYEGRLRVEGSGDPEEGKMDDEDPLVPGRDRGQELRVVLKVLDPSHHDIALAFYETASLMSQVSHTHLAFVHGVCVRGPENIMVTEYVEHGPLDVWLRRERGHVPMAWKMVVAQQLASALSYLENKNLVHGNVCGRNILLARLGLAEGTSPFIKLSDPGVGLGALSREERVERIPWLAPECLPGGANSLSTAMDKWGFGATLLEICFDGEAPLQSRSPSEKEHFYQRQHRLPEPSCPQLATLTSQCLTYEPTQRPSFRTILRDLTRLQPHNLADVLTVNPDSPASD
assay method text: TYK2 JH2 Domain Binding Assay (KINOMEscan, DiscoveRx)
condition context: 11-point dilution, duplicate
pKd: −log10 of the molar value.
measured metric: pKd

Cc1nc2c(Nc3ccc([C@@H]4CCCCO4)cc3S(C)(=O)=O)cc(Nc3cnc(C)c(C)n3)nc2[nH]1 :: 9.30 to 10.00
CN=S(C)(=O)c1cc(-c2nn(C)cc2C)ccc1Nc1cc(NC(=O)C2CC2)nc2[nH]c(C(F)F)nc12 (stereo not shown) :: > 10.00
COc1cc(-c2cc(C)n(C)n2)ccc1Nc1cc(NC(=O)C2CC2)nc2[nH]c(C)nc12 :: 8.00 to 9.00

Batch request: pKd per item, same order as input.
1. CS(=O)(=O)c1cc(C2CCCO2)ccc1Nc1cc(NC(=O)C2CC2)nc2[nH]c(C(F)F)nc12 (stereo not shown)
2. Cc1cc(Nc2cc(Nc3ccc(C4CCC(C)(C)CO4)cc3S(C)(=O)=O)c3nc(C)[nH]c3n2)nc(C)n1 (stereo not shown)
3. CS(=O)(=O)c1ccccc1Nc1cc(Nc2cccc(C#N)n2)nc2[nH]c(C(F)F)nc12
4. Cc1cn(C)c(-c2ccc(Nc3cc(NC(=O)C4CC4)nc4[nH]c(C(F)F)nc34)c(N(C)S(C)(=O)=O)c2)n1

< 8.00
> 10.00
> 10.00
9.00 to 9.30
